Known EC50 of a selection of molecules
System: Rat whole blood (RWB)
Assay: LTB4 secretion assay in RWB (rat whole blood)
Type: cell-based
Details: Rattus norvegicus

Consider the worked cases shown below.
Molecule	EC50
Nc1ccc2[nH]c(N3CCC(Oc4ccc(Cl)cn4)C3)nc2c1 (centres unmarked)	> 20 µM
Cc1[nH]nc(Nc2ccc3nc(NCc4ccc(Oc5ncc(Cl)cn5)cc4)n(C)c3c2)c1C	< 10 µM

// EC50 lookup, key: Nc1cc2nc(NCc3ccc(Oc4ccc(Cl)cc4)cc3)[nH]c2cc1Cl < 10 µM

Then Cn1c(NCc2ccc(Oc3ccc(C(F)(F)F)cn3)cc2F)nc2ccc(NC3COC3)cc21 ? < 10 µM

Then Cn1c(NCCOc2ccc(OC(F)(F)F)cc2Cl)nc2ccc(N)cc21 ? 10 to 20 µM

Then Cn1c(NCc2ccc(Oc3ccncn3)cc2)nc2ccc(NC3COC3)cc21 ? 10 to 20 µM

Then COc1cc(Oc2ccc(Cl)cn2)ccc1CNc1nc2ccc(NC3COC3)cc2n1C ? < 10 µM

Then Cn1c(NCc2ccc(Oc3nc4ccccc4n3C)cc2)nc2ccc(NC3COC3)cc21 ? 10 to 20 µM

====

Known IC50 of a selection of molecules
Biological target: human 5-LOX (Homo sapiens, UniProt P09917)
Construct: purchased Cayman 60402; host or cells: insect cells (lysate)
Sequence (P09917 1-674): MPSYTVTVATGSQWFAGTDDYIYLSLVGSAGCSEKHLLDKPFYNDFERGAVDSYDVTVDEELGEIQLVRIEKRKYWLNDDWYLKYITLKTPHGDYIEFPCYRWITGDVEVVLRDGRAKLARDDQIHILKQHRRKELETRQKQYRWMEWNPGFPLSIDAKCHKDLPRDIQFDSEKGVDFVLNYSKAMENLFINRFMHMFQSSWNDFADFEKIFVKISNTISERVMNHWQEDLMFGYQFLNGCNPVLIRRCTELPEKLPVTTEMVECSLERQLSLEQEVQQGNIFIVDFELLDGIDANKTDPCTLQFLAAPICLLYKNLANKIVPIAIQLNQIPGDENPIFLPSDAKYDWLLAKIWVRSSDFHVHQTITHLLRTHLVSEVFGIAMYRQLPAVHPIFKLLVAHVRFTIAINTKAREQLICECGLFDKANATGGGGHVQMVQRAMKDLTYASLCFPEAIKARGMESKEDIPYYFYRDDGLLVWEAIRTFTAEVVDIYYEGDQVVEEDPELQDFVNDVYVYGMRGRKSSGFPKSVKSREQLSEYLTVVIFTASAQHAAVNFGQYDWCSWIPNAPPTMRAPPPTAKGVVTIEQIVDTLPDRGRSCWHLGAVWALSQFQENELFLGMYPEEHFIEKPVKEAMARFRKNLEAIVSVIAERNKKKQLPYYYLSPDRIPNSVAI
Test: 5-LOX enzyme activity, fluorescence method (5-HPETE, H2DCFDA)
Type: biochemical
Details: read-out: 5-LO (IC50)

Please provide the recorded IC50 for Clc1ccc(Oc2ccc(CNc3nc4cc(Nc5cccnc5)ccc4[nH]3)cc2)cc1 [Compound 16] , tested on human 5-LOX (Homo sapiens, UniProt P09917). < 1000 nM

Then CC(C)(C)Nc1nc2ccc(N)cc2n1CC(=O)Nc1ccc(OC(F)(F)F)cc1 [Compound 67] ? < 1000 nM

Then Nc1ccc2nc(N)n(CCOc3ccc(OC(F)(F)F)cc3)c2c1 [Compound 48] ? < 1000 nM

====

Test system: Rat whole blood (RWB)
Assay: LTB4 secretion assay in RWB (rat whole blood)
Type: cell-based
Details: Rattus norvegicus
Readout label: EC50

Consider the worked cases shown below.
Compound	EC50
Cn1c(NCc2ccc(Oc3ncccn3)cc2)nc2ccc(N)cc21	10 to 20 µM
Cn1nc(C(F)(F)F)cc1Nc1ccc2nc(NCc3ccc(Oc4ncc(Cl)cn4)cc3)n(C)c2c1	< 10 µM
Cn1c(NCc2ccc(Oc3cnc(Cl)cn3)cc2)nc2ccc(NC3COC3)cc21	< 10 µM

// EC50 lookup, key: OCCNc1nc2ccc(NC3COC3)cc2n1Cc1ccc(Oc2ccc(Cl)cc2)cc1 < 10 µM

Then Cn1c(NCc2ccc(Oc3cnc(N)nc3)cc2)nc2ccc(NC3COC3)cc21 ? < 10 µM

Then Nc1ccc2[nH]c(NCc3cccc4ccccc34)nc2c1 ? 10 to 20 µM

Then CC(C)(O)Cn1c(NCc2ccc(Oc3ccc(Cl)cn3)cc2)nc2ccc(N)cc21 ? > 20 µM

Then CN(C)c1nc2ccc(N3CCC(Oc4ccc(OC(F)(F)F)cc4)C3)cc2[nH]1 (centres unmarked) ? > 20 µM

Then Cn1nc(Nc2ccc3nc(NCc4ccc(Oc5ncc(Cl)cn5)cc4)n(C)c3c2)cc1CF ? < 10 µM

Then CCn1c(NCc2ccc(Oc3ncc(C(F)(F)F)cn3)cc2)nc2ccc(Nc3n[nH]c(C)c3Cl)cc21 ? < 10 µM

Then Cn1c(NCc2ccc(Oc3ncc(OC(F)(F)F)cn3)cc2)nc2ccc(NC3COC3)cc21 ? < 10 µM

Then Cn1c(NCc2ccc(Oc3ccc(Cl)cc3)nc2)nc2ccc(NC3COC3)cc21 ? > 20 µM

Then CC(C)(Nc1ccc2[nH]c(NCc3ccc(Oc4ccccc4)cc3)nc2c1)C(N)=O ? < 10 µM

Then Cn1ccc(Nc2ccc3nc(NCc4ccc(Oc5ncc(Cl)cn5)cc4)n(C)c3c2)n1 ? < 10 µM

Then Nc1ccc2nc(N)n(Cc3ccc(COc4ccc(Cl)cn4)cc3)c2c1 ? < 10 µM

Then Cn1c(NCc2ccc(Oc3ncc(Cl)cn3)cc2)nc2ccc(NC(C)(C)C(N)=O)cc21 ? < 10 µM

Then CN(C)c1ccc2nc(NCc3ccc(Oc4ccc(Cl)cn4)cc3)n(C)c2c1 ? < 10 µM

====

Known IC50 of a selection of compounds
Target: human 5-LOX (Homo sapiens, UniProt P09917)
Construct: purchased Cayman 60402; host or cells: insect cells (lysate)
Test: 5-LOX enzyme activity, fluorescence method (5-HPETE, H2DCFDA)
Assay type: biochemical
Settings: read-out: 5-LO (IC50)

Consider the worked cases shown below.
Compound	System under test	IC50
CCn1c(NCc2ccc(Oc3ncc(C(F)(F)F)cn3)cc2)nc2ccc(Nc3n[nH]c(C)c3Cl)cc21 [Compound 508]	human 5-LOX (Homo sapiens, UniProt P09917)	1 to 10 µM
CN(C)c1nc2ccc(N)cc2n1CCOc1ccc(OC(F)(F)F)cc1 [Compound 44]	human 5-LOX (Homo sapiens, UniProt P09917)	< 1 µM
FC(F)(F)CCNc1nc2ccc(NC3COC3)cc2n1Cc1ccc(Oc2ccc(Cl)cc2)cc1 [Compound 279]	human 5-LOX (Homo sapiens, UniProt P09917)	1 to 10 µM

The record that follows has no IC50 shown yet.
Please provide the recorded IC50 for Nc1ccc2[nH]c(N3CCC(Oc4ccc(F)cc4)CC3)nc2c1 [Compound 34] , tested on human 5-LOX (Homo sapiens, UniProt P09917). < 1 µM

====

Known melting point of a selection of molecules

// melting point lookup, key: CC(C)Nc1ccc2[nH]c(NCc3ccc(Oc4ccccc4)cc3)nc2c1 > 137.5 °C

====

System: Rat whole blood (RWB)
Test: LTB4 secretion assay in RWB (rat whole blood)
Type: cell-based
Conditions: Rattus norvegicus
Readout label: EC50

// EC50 lookup, key: Nc1ccc2[nH]c(N3CCC(Oc4ccc(OC(F)(F)F)cc4)C3)nc2c1 (stereo not shown) < 10 µM

Then Cn1c(NCc2ccc(Oc3nccc(C(F)(F)F)n3)cc2)nc2ccc(NC3COC3)cc21 ? > 20 µM

Then Nc1ccc2nc(NCc3coc(-c4ccc(Cl)cc4)n3)[nH]c2c1 ? > 20 µM

Then Cn1c(NCc2ccc(Oc3ccc(Cl)cn3)cc2)nc2ccc(Nc3cc[nH]n3)cc21 ? < 10 µM

====

System: Rat whole blood (RWB)
Experiment: LTB4 secretion assay in RWB (rat whole blood)
Assay type: cell-based
Details: Rattus norvegicus
Readout label: EC50

Consider the worked cases shown below.
Compound	EC50
Nc1ccc2nc(N3CCCC3)n(CCOc3ccc(OC(F)(F)F)cc3)c2c1 [Compound 51]	10 to 20 µM
CN(C)c1nc2ccc(NCc3ccc(C4(C#N)CCOCC4)cc3)cc2[nH]1 [Compound 241]	> 20 µM
Cn1c(NCc2ccc(Oc3ccc(C(F)(F)F)cn3)cc2)nc2ccc(NC3COC3)cc21 [Compound 284]	< 10 µM

Please provide the recorded EC50 for CC(C)(C)Nc1ccc2nc(N)n(CCOc3ccc(OC(F)(F)F)cc3)c2c1 [Compound 93] , tested on Rat whole blood (RWB). > 20 µM

Then Cn1c(NCc2ccc(Oc3ncc(Cl)cn3)cc2)nc2ccc(Nc3cc(C(C)(C)C)[nH]n3)cc21 [Compound 469] ? < 10 µM

Then Cc1cccnc1Nc1ccc2nc(NCc3ccc(Oc4ncc(Cl)cn4)cc3)n(C)c2c1 [Compound 464] ? < 10 µM

Then CC(C)(C)Nc1nc2cc(N)ccc2n1CCOc1ccc(OC(F)(F)F)cc1 [Compound 66] ? > 20 µM

Then CCC(Nc1ccc2[nH]c(N(C)C)nc2c1)c1ccc(Oc2ccc(Cl)cc2)cc1 (centres unmarked) [Compound 128] ? > 20 µM

Then Nc1ccc2[nH]c(NCc3ccc4ccccc4c3)nc2c1 [Compound 81] ? < 10 µM

Then Cn1c(NCc2ccc(Oc3ncc(C(F)(F)F)cn3)cc2)nc2ccc(NC3COC3)cc21 [Compound 374] ? < 10 µM

Taken from patent US11447486B2.
